- assay notes: Volume of distribution in rat
- Format: ADME, organism-based
- conditions used: in vivo
observed property: Vd (L/kg)

>>> reported_result("Cc1cccc(CNC(=O)c2cc(-c3ccc(C)o3)nc(N)n2)n1")
0.7

---

- assay notes: Terminal half life in rat
- Assay type: ADME, organism-based
- conditions used: in vivo, read-out: beta t1/2 (converted)
observed property: half-life (h)

>>> reported_result("Cc1cccc(CNC(=O)c2cc(-c3ccc(C)o3)nc(N)n2)n1")
3

---

- assay notes: Oral bioavailability in rat
- Assay type: ADME, organism-based
- conditions used: in vivo
observed property: bioavailability (%)

>>> reported_result("Cc1cccc(CNC(=O)c2cc(-c3ccc(C)o3)nc(N)n2)n1")
3

src = ChEMBL document CHEMBL1152564
